B1: Membrane-associated guanylate kinase, WW and PDZ domain-containing protein 1, residues 352 to 401; numbered along this chain, Q96QZ7 (parent)
chain: TEELDSELELPAGWEKIEDPVYGIYYVDHINRKTQYENPVLEAKRKKQLE

- Variants of: B1
- testDescription: abundance fitness (aPCA) (normalised: wild type 0, dead -1); higher = more abundant; growth selection in yeast, the domain comes from the species named
- measurementSetup: Homo sapiens
quantity: abundance fitness

- N38I: -0.61
- N38M: -0.116
- L41P: -0.128
- D19M: -0.845
- Y36I: -0.185
- S6F: -0.231
- Y26N: -0.54
- K47D: -0.154
- N31E: -0.396
- K46D: 0.012
- K47W: -0.414
- G23R: -0.56
- K33N: -0.169
- L49E: 0.132
- E18M: -0.231
- N31P: -0.663
- A43T: 0.045
- V27L: -0.073
- D19G: -0.596
- R32W: -0.519
- W14L: -0.897
- R32L: -0.119
- D19Y: -0.861
- D19I: -0.633
- L49N: -0.222
- E37N: -0.005
- E50T: -0.174
- K16F: -0.688
- P39M: -0.714
- K47C: -0.232
- Q48R: -0.227
- V21A: 0.097
- I17L: -0.065
- L8F: -0.091
- E15L: -0.55
- Y22I: -0.162
- E18Q: -0.794
- N31W: -0.843
- Q35E: -0.373
- L10I: -0.148
- Y25G: -0.299
- G13Y: -0.183
- R45S: -0.067
- Y25T: -0.266
- P39Q: -0.447
- K44R: -0.057
- W14H: -0.592
- I17C: -0.252
- L8K: 0.095
- E9R: -0.179
- S6Q: -0.046
- V21H: -0.232
- Y22C: -0.061
- E7P: -0.217
- K33S: -0.222
- L8M: -0.023
- E9M: -0.079
- Y22Q: -0.156
- Y25A: -0.278
- E15A: -0.341
- L8H: -0.15
- I17N: -0.604
- S6M: -0.179
- R45N: -0.363
- V40L: -0.016
- K16Y: -0.902
- G23F: -0.826
- Q48D: 0.017
- R45T: 0.048
- H29S: -0.26
- V21Q: -0.008
- L10N: -0.574
- T34A: -0.413
- D5M: -0.421
- D19S: -0.163
- K47R: -0.163
- D5V: 0.001
- E3P: -0.744
- G23N: -0.822
- E7V: 0.03
- P39G: -0.393
- E15H: -0.393
- K47G: -0.169
- T34E: -0.316
- K16I: -0.134
- I17S: -0.484
- E37L: -0.213
- K33H: -0.463
- Y26M: -0.552
- D19A: -0.551
- E2T: 0.129
